assay: HILIC, Merck SeQuant ZIC-pHILIC, 150 × 2.1 mm, 5 µm, 40 °C, 0.3 mL/min, estimated dead time 1.1 min; A: acetonitrile; B: water + 2.8 mM ammonium formate, pH 9; gradient (min/%B) 0/5 1/5 10/51 13/51 13.1/5 20/5; details: stereoisomer not certain
Outcome Measure: LC retention time (min)

Cn1cnc2c1c(=O)[nH]c(=O)n2C [THEOBROMINE] :: 1.93
CC1OC(n2cnc3c(N)ncnc32)C(O)C1O (configuration not stated) [5'-DEOXYADENOSINE] :: 4.24
O=C(O)Cc1cc(O)ccc1O [HOMOGENTISATE] :: 6.88
NC(=O)NCCC(=O)O [UREIDOPROPIONATE] :: 7.98
NC(Cc1cc(I)c(Oc2ccc(O)c(I)c2)c(I)c1)C(=O)O (configuration not stated) [LIOTHYRONINE] :: 6.19
Cc1cc2nc3[nH]c(=O)[nH]c(=O)c3nc2cc1C [LUMICHROME] :: 2.06
O=c1[nH]c(=O)c2ncn(C3OC(CO)C(O)C3O)c2[nH]1 (configuration not stated) [XANTHOSINE] :: 7.99
O=c1[nH]c(=O)c2ncn(C3OC(COP(=O)(O)O)C(O)C3O)c2[nH]1 (configuration not stated) [XANTHOSINE-MONOPHOSPHATE] :: 10.2
CC(=O)NC(CC(N)=O)C(=O)O (configuration not stated) [N-ACETYLASPARAGINE] :: 7.88
C[C@@H](N)C(=O)O [D-ALANINE] :: 5.74

a. Nc1ncnc2c1ncn2C1CC(O)C(COP(=O)(O)O)O1 (configuration not stated) [DEOXYADENOSINE MONOPHOSPHATE]
b. O=C(O)CNC(=O)c1ccccc1 [HIPPURATE]
c. O=C(O)CCCCCCCC(=O)O [AZELATE]
Query :: List items by LC retention time in falling order. Output spec: labels arranged per the requested ranking.
Result :: a, b, c
(a: 7.95 min, b: 5.32 min, c: 3.51 min)

* * *

assay: HILIC, Merck SeQuant ZIC-pHILIC, 150 × 2.1 mm, 5 µm, 40 °C, 0.3 mL/min, estimated dead time 1.1 min; A: acetonitrile; B: water + 2.8 mM ammonium formate, pH 9; gradient (min/%B) 0/5 1/5 10/51 13/51 13.1/5 20/5; settings: stereoisomer not certain
Outcome Measure: LC retention time (min)

Solved entries (count: 3):
Nc1nc2nc[nH]c2c(=O)[nH]1 :: 7.4
N[C@H](C(=O)O)c1ccc(O)cc1 [4-HYDROXY-L-PHENYLGLYCINE] :: 9.02
OCC1OC(OCC2OC(O)C(O)C(O)C2O)C(O)C(O)C1O (configuration not stated) :: 9.37

1. O=P(O)(O)OCC1OC(O)C(O)C1O [D-RIBOSE 5-PHOSPHATE]
2. CC(=O)NC(Cc1ccccc1)C(=O)O (configuration not stated)
3. O=C(O)c1cc(O)ccc1[O-] [2,5-DIHYDROXYBENZOATE]
Query :: List items by LC retention time in falling order. Output spec: labels arranged per the requested ranking.
Result :: 1, 3, 2
(1: 9.19 min, 3: 6.29 min, 2: 4.08 min)

I. CSCCC(N)C(=O)O (configuration not stated)
II. Nc1ccc(C(=O)[O-])cc1 [4-AMINOBENZOATE]
Query :: Choose between I and II : whose measured LC retention time value is numerically larger? Field: selected label. Fill in the label of the entry you choose.
Result :: I

a. NC(CS)C(=O)O (configuration not stated)
b. COc1cc(C(O)C(=O)O)ccc1O (configuration not stated) [3-METHOXY-4-HYDROXYMANDELATE]
Query :: Choose between a and b : whose measured LC retention time value is numerically larger? Field: selected label. Fill in the label of the entry you choose.
Result :: a
